The values you see were collected from patent US9453051B2.

Tested on: NFAT
method-description: Cellular NFAT-reporter-gene assay (GloResponse NFAT-RE-luc2P HEK293)
Format: cell-based
condition-label: Homo sapiens, HEK293, 16 h, read-out: NFAT-reporter-gene assay IC50
result-type: IC50

CC[C@@H]1NC(=O)[C@H]([C@H](O)[C@H](C)Cc2nc3ccc(C(=O)O)cc3n2C)N(C)C(=O)[C@H](C(C)C)N(C)C(=O)[C@H](CC(C)C)N(C)C(=O)[C@H](CC(C)C)N(C)C(=O)[C@@H](C)NC(=O)[C@H](C)NC(=O)[C@H](CC(C)C)N(C)C(=O)[C@H](C(C)C)NC(=O)[C@H](CC(C)C)N(C)C(=O)CN(C)C1=O	> 10 µM

The measured IC50 associated with `CC[C@@H]1NC(=O)[C@H]([C@H](O)[C@H](C)Cc2nc3cc(C(=O)OCCN(C)C)ccc3[nH]2)N(C)C(=O)[C@H](C(C)C)N(C)C(=O)[C@H](CC(C)C)N(C)C(=O)[C@H](CC(C)C)N(C)C(=O)[C@@H](C)NC(=O)[C@H](C)NC(=O)[C@H](CC(C)C)N(C)C(=O)[C@H](C(C)C)NC(=O)[C@H](CC(C)C)N(C)C(=O)CN(C)C1=O` reads > 10 µM

Value of measured IC50 for the entry `CC[C@@H]1NC(=O)[C@H]([C@H](O)[C@H](C)Cc2nc3cc(C(=O)OC(C)C)ccc3[nH]2)N(C)C(=O)[C@H](C(C)C)N(C)C(=O)[C@H](CC(C)C)N(C)C(=O)[C@H](CC(C)C)N(C)C(=O)[C@@H](C)NC(=O)[C@H](C)NC(=O)[C@H](CC(C)C)N(C)C(=O)[C@H](C(C)C)NC(=O)[C@H](CC(C)C)N(C)C(=O)CN(C)C1=O` : 10 µM

Item: `CCOC(=O)c1ccc2[nH]c(C[C@@H](C)[C@@H](O)[C@H]3C(=O)N[C@@H](CC)C(=O)N(C)CC(=O)N(C)[C@@H](CC(C)C)C(=O)N[C@@H](C(C)C)C(=O)N(C)[C@@H](CC(C)C)C(=O)N[C@@H](C)C(=O)N[C@H](C)C(=O)N(C)[C@@H](CC(C)C)C(=O)N(C)[C@@H](CC(C)C)C(=O)N(C)[C@@H](C(C)C)C(=O)N3C)nc2c1` | IC50: > 10 µM

So, `CC[C@@H]1NC(=O)[C@H]([C@H](O)[C@H](C)Cc2nc3cc(C(=O)OC)c(C(=O)OC)cc3[nH]2)N(C)C(=O)[C@H](C(C)C)N(C)C(=O)[C@H](CC(C)C)N(C)C(=O)[C@H](CC(C)C)N(C)C(=O)[C@@H](C)NC(=O)[C@H](C)NC(=O)[C@H](CC(C)C)N(C)C(=O)[C@H](C(C)C)NC(=O)[C@H](CC(C)C)N(C)C(=O)CN(C)C1=O` ? Its IC50 was > 10 µM

For this molecule ( `CC[C@@H]1NC(=O)[C@H]([C@H](O)[C@H](C)Cc2nc3c(F)c(F)cc(S(=O)(=O)O)c3[nH]2)N(C)C(=O)[C@H](C(C)C)N(C)C(=O)[C@H](CC(C)C)N(C)C(=O)[C@H](CC(C)C)N(C)C(=O)[C@@H](C)NC(=O)[C@H](C)NC(=O)[C@H](CC(C)C)N(C)C(=O)[C@H](C(C)C)NC(=O)[C@H](CC(C)C)N(C)C(=O)CN(C)C1=O` ), measured IC50 is > 10 µM

// field: IC50; key: `CC[C@@H]1NC(=O)[C@H]([C@H](O)[C@H](C)Cc2nc3cc(N4CCN(C)CC4)ccc3[nH]2)N(C)C(=O)[C@H](C(C)C)N(C)C(=O)[C@H](CC(C)C)N(C)C(=O)[C@H](CC(C)C)N(C)C(=O)[C@@H](C)NC(=O)[C@H](C)NC(=O)[C@H](CC(C)C)N(C)C(=O)[C@H](C(C)C)NC(=O)[C@H](CC(C)C)N(C)C(=O)CN(C)C1=O` ; value = > 10 µM

Kindly note the recorded IC50 for `CC[C@@H]1NC(=O)[C@H]([C@H](O)[C@H](C)Cc2nc3cc(C(=O)OCCN4CCOCC4)ccc3[nH]2)N(C)C(=O)[C@H](C(C)C)N(C)C(=O)[C@H](CC(C)C)N(C)C(=O)[C@H](CC(C)C)N(C)C(=O)[C@@H](C)NC(=O)[C@H](C)NC(=O)[C@H](CC(C)C)N(C)C(=O)[C@H](C(C)C)NC(=O)[C@H](CC(C)C)N(C)C(=O)CN(C)C1=O` , which is 7.4 µM

# IC50 of `CC[C@@H]1NC(=O)[C@H]([C@H](O)[C@H](C)Cc2nc3cc(N)c(N)cc3[nH]2)N(C)C(=O)[C@H](C(C)C)N(C)C(=O)[C@H](CC(C)C)N(C)C(=O)[C@H](CC(C)C)N(C)C(=O)[C@@H](C)NC(=O)[C@H](C)NC(=O)[C@H](CC(C)C)N(C)C(=O)[C@H](C(C)C)NC(=O)[C@H](CC(C)C)N(C)C(=O)CN(C)C1=O` = > 10 µM

According to the records, this molecule `CC[C@@H]1NC(=O)[C@H]([C@H](O)[C@H](C)Cc2nc3cc(-c4nnn[nH]4)ccc3[nH]2)N(C)C(=O)[C@H](C(C)C)N(C)C(=O)[C@H](CC(C)C)N(C)C(=O)[C@H](CC(C)C)N(C)C(=O)[C@@H](C)NC(=O)[C@H](C)NC(=O)[C@H](CC(C)C)N(C)C(=O)[C@H](C(C)C)NC(=O)[C@H](CC(C)C)N(C)C(=O)CN(C)C1=O` displays IC50 of > 10 µM

get_value(item= `CC[C@@H]1NC(=O)[C@H]([C@H](O)[C@H](C)Cc2nc3cc(/C=C/C(=O)O)ccc3[nH]2)N(C)C(=O)[C@H](C(C)C)N(C)C(=O)[C@H](CC(C)C)N(C)C(=O)[C@H](CC(C)C)N(C)C(=O)[C@@H](C)NC(=O)[C@H](C)NC(=O)[C@H](CC(C)C)N(C)C(=O)[C@H](C(C)C)NC(=O)[C@H](CC(C)C)N(C)C(=O)CN(C)C1=O` , readout=IC50) returns > 10 µM
